- study target: mouse Dvl1 PDZ domain (mDvl1 residues 247-341) (Mus musculus, UniProt P51141, C338A)
- Sequence (P51141 247-341 C338A): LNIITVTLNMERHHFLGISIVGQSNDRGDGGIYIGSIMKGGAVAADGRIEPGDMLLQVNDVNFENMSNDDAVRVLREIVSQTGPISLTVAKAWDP
- protocol summary: fluorescence polarization competition with Rox-DprC
- Format: binding

{"columns": ["molecule", "Ki"],
 "data": [
  ["Cc1ccc(C[C@H](NC(=O)c2cccc(F)c2)C(=O)N[C@@H](CC(C)C)C(=O)O)cc1", "4.2 µM"],
  ["Cc1ccc(C[C@H](NC(=O)c2cc(C)c(F)c(F)c2)C(=O)N[C@@H](CC(C)C)C(=O)O)cc1 [J01-017a]", "1.5 µM"],
  ["Cc1ccc(C[C@H](NC(=O)c2cccc(C)c2)C(=O)N[C@@H](CC(C)C)C(=O)O)cc1", "3.5 µM"]
]}

// provenance: paper PMC3310947
